Target: T1, human TGFβ2 (human, UniProt P61812 303-414)
T1 construct: also called TGFβ2 homodimer
T1 sequence: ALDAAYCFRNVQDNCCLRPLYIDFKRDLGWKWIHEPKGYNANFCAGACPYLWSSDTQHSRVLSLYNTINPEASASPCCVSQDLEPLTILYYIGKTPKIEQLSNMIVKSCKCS
Assay: Biacore off-rate vs wt GC1008, 50 nM
Description: Plasmids encoding either the GC1008 heavy chain or light chain were used as a template in PCR-based mutagenesis reactions. […] Purified variant antibody samples were analyzed in duplicate on a Biacore® 3000 (GE Healthcare) at 50 nM concentrations, using the 100 RU level TGFβ1, 2, and 3 immobilized surfaces. […]
measure: kd var/kd wt
API note: the answer field is a bare number with no unit suffix.

Exercise: Recorded kd var/kd wt for S30I (antibody, V domains shown, GC1008 IgG4 variant) VH: QVQLVQSGAEVKKPGSSVKVSCKASGYTFISNVISWVRQAPGQGLEWMGGVIPIVDIANYAQRFKGRVTITADESTSTTYMELSSLRSEDTAVYYCASTLGLVLDAMDYWGQGTLVTVSS VL: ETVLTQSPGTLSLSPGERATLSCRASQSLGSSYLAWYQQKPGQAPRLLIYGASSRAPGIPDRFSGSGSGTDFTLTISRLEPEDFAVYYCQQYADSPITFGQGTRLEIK , please?
Key: 1.1

Exercise: Recorded kd var/kd wt for S31R (antibody, V domains shown, GC1008 IgG4 variant) VH: QVQLVQSGAEVKKPGSSVKVSCKASGYTFSRNVISWVRQAPGQGLEWMGGVIPIVDIANYAQRFKGRVTITADESTSTTYMELSSLRSEDTAVYYCASTLGLVLDAMDYWGQGTLVTVSS VL: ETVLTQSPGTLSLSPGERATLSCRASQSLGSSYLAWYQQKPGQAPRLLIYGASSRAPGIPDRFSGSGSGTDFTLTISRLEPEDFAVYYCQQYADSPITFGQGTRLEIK , please?
Key: 1.2

Taken from patent US20170342144A1.
